- Tested on: DIV14
- assaySummary: qHTS profiling for inhibitors of Plasmodium falciparum proliferation (AID 504749); further: nearly all actives have a fitted effect of over 60% in size
- conditionDetails: P. falciparum in erythrocytes, SYBR Green DNA, 72 h; series mostly up to 28.7 µM
- Description: NIH National Institute of Allergy and Infectious Diseases [NIAID] NIH Chemical Genomics Center [NCGC] […] Because mature erythrocytes lack DNA, only Plasmodium-derived DNA is detected. NCGC Assay Protocol Summary: The SYBR Green viability assay was adapted from a method described previously (Plouffe et al., 2008). […] The following morning, fluorescence intensity at 485(14) nm excitation and 535(25) nm emission wavelengths was measured on an EnVision (Perkin Elmer) plate reader. […]
Inconclusive results are not listed. Activity calls are given as the source filed them. The call rests on the fitted dose curve; in most records, active means well fitted inhibition curve with a large enough effect; inconclusive means small, poorly fitted or top-dose-only effect; inactive means flat fitted curve, though single readings scatter.
Possible outcomes: 1 (active), -1 (inactive)

compound	categoryLabel
N=c1ccn2c(n1)O[C@H]1[C@H](O)[C@@H](CO)O[C@H]12	-1
CC1(C)C[C@@H]1C(=O)N/C(=C\CCCCSC[C@H](N)C(=O)O)C(=O)O	-1
Nc1c(CC(=O)O)cccc1C(=O)c1ccc(Br)cc1	-1
CN1[C@@H](CC(=O)c2ccccc2)CCC[C@H]1C[C@H](O)c1ccccc1	1
COc1cc(/C=C/C(=O)CC(=O)/C=C/c2ccc(O)c(OC)c2)ccc1O	1
CCCCCCCCCCCCCCCC(=O)OC(C)C	-1
O=C(Nc1ccc(C(=O)O)c(O)c1)c1ccccc1	-1
C=CCCCCCCCCC(=O)O	-1
Cc1nc2ccccc2n1Cc1ccc(Cl)cc1	-1
CCCSc1ccc2nc(NC(=O)OC)[nH]c2c1	-1
CC(C(=O)O)c1ccc2c(c1)[nH]c1ccc(Cl)cc12 (configuration not stated)	-1
Cc1ccc(O)c(-n2nc3ccccc3n2)c1	-1
COc1cc2c3cc1Oc1cc(ccc1O)C[C@@H]1c4c(cc(OC)c(O)c4Oc4ccc(cc4)C[C@@H]3N(C)CC2)CC[N+]1(C)C	-1
COC(=O)C1=C(C)NC(C)=C(C(=O)OCC(C)C)C1c1ccccc1[N+](=O)[O-] (configuration not stated)	1
CC1(C)[C@@H](O)CC[C@]2(C)[C@H]3C(=O)C=C4[C@@H]5C[C@@](C)(C(=O)O)CC[C@]5(C)CC[C@@]4(C)[C@]3(C)CC[C@@H]12	-1
O=C(O)[C@H](O)[C@@H](O)[C@H](O)[C@H](O)CO	-1
CN1CCN(c2cc3c(nn2)Oc2ccccc2N3C)CC1	-1
COc1ccc(/C=C/C(=O)Nc2ccccc2C(=O)O)cc1OC	-1
CCCOC(=O)c1ccc(O)cc1	-1
CCCCCCCCCCCCCCCCCC(=O)O	-1
O=C(O)COc1ccc(C(=O)c2cccs2)c(Cl)c1Cl	-1
CCCCCC[C@@H](O)C/C=C\CCCCCCCC(=O)O	-1
O=C(/C=C/c1ccccc1)NCCO	-1
COc1cc(CNC(=O)CCCC/C=C/C(C)C)ccc1O	-1
[O-][n+]1ccccc1SSc1cccc[n+]1[O-]	1
CC1OC1P(=O)(O)O (configuration not stated)	-1
COc1ccc(-c2cc(=S)ss2)cc1	-1
C[S+](CC[C@H](N)C(=O)O)C[C@H]1O[C@@H](n2cnc3c(N)ncnc32)[C@H](O)[C@@H]1O (some centres not stated)	-1
Cc1ccccc1CNc1ncnc2c1ncn2C1OC(CO)C(O)C1O (configuration not stated)	-1
Nc1ccc(C(=O)O)c(O)c1	-1
CCCC(=O)OC[C@@H](OC(=O)CCC)[C@@H](OC(=O)CCC)[C@H](Cn1c2nc(=O)[nH]c(=O)c-2nc2cc(C)c(C)cc21)OC(=O)CCC	-1
c1ccc2sc(SSc3nc4ccccc4s3)nc2c1	-1
